Assay: Human HepG2 cell viability assay in 384 well format
Format: toxicity, cell-based
Parameters: dose 125 nL, time 70.5 hour; concentration not given beside the values
Conditions: HepG2 cells, read-out: Inhibition
A collection of compounds and their measured cytotoxicity at 70.5 h
measured.endpoint: cytotoxicity at 70.5 h (%)

                                    compound  result_units  endpoint_result
 0  COCCCN1CCCN(C(C)C(=O)Nc2ccnn2C(C)C)CC1 (configuration not stated)             %               -4
 1  Cc1cc(C[C@@H]2COC[C@@H]2NC(=O)Cn2c(=O)oc3ccccc32)on1             %             1.37
 2  Cc1cccc(C(=O)N2CC[C@H]3C[C@@H](C)O[C@@H]3C2)n1             %            -19.7
 3       Cc1nc(C(C)(C)C)sc1C(=O)NCCNc1ncccn1             %            -8.27
 4  CS(=O)(=O)CCN1CCC2(CCCN(C3CCOCC3)C2=O)C1 (configuration not stated)             %            -5.34
 5  COCCn1c(=O)n(Cc2ccc(Cl)s2)c2cc(C(=O)O)ccc21             %            -10.7
 6  COc1ccc(CN(C)C(=O)NCc2c(C)cc(C)[nH]c2=O)cc1             %            -4.65
 7               CN(C)c1nccc(N(C)C2CCOCC2)n1             %            -2.99
 8      Cn1cc(CNc2ccc(CCO)cc2)c(-c2ccncc2)n1             %             21.4
 9              CNC(=O)c1cc(C)n(-c2ccccc2)n1             %            -2.98
10  O=C(NCC1(O)CCOC1)NCC1(c2ccccc2Cl)CC1 (configuration not stated)             %            -2.47
11  CO[C@H]1CN(Cc2ccc(C)o2)[C@@H]2CCCO[C@H]12             %             13.3

====

Assay: Human HepG2 cell viability assay in 384 well format
Format: toxicity, cell-based
Design: dose 125 nL, time 70.5 hour; concentration not given beside the values
Conditions: HepG2 cells, read-out: Inhibition
measured.endpoint: cytotoxicity at 70.5 h (%)

>>> df
                                    molecule       measured_endpoint  result_units  endpoint_result
 0          CCN(Cc1ccoc1)c1ncc(S(N)(=O)=O)s1  cytotoxicity at 70.5 h             %            -7.46
 1  O=C(CN1CCCCC1)Nc1cc(C(F)(F)F)ccc1-n1cccc1  cytotoxicity at 70.5 h             %            -9.88
 2  Cc1cc(C)n(-c2cncc(NCCNC(=O)c3cccnc3)n2)n1  cytotoxicity at 70.5 h             %            -3.57
 3  C1CC(CN2CCc3c(nnn3CC3CC3)C2COCC2CC2)C1 (stereo unspecified)  cytotoxicity at 70.5 h             %            -8.97
 4       Cc1nc(CN2CCC(c3nc4ccccc4n3C)CC2)co1  cytotoxicity at 70.5 h             %            -24.4
 5  COc1nn(C)cc1C(=O)N1CCC(c2ccccc2)C1 (stereo unspecified)  cytotoxicity at 70.5 h             %            -1.63
 6  CC1(NC(=O)Cc2csc(NC(=O)c3ccccc3)n2)CCS(=O)(=O)C1 (stereo unspecified)  cytotoxicity at 70.5 h             %            -71.2
 7  CCN1CCO[C@@H]2CN(S(=O)(=O)c3cccs3)CC[C@@H]2C1  cytotoxicity at 70.5 h             %            -6.19
 8  CCc1nccn1C1CCCN(C(=O)c2ccc3[nH]c(=O)[nH]c3c2)C1 (stereo unspecified)  cytotoxicity at 70.5 h             %               29
 9        Cn1cc(CN(Cc2ccccn2)Cc2ccccc2Cl)cn1  cytotoxicity at 70.5 h             %             -1.3
10         CC(C)(C)C(=O)CN1CCc2ccccc2NCCC1=O  cytotoxicity at 70.5 h             %              3.4
11  Cc1cccc2c(CCNS(=O)(=O)C3CCOC3)c[nH]c12 (stereo unspecified)  cytotoxicity at 70.5 h             %             12.8
12  CC(C(=O)NCc1ccc(N2CCN(C)CC2)nc1)n1cccn1 (stereo unspecified)  cytotoxicity at 70.5 h             %            -6.16
13  COC(=O)C1CCCCN1C(=O)c1ccccc1F (stereo unspecified)  cytotoxicity at 70.5 h             %            -2.94
14      O=S(=O)(c1cncc(F)c1)N1CCC2(CCCCC2)C1  cytotoxicity at 70.5 h             %              -13
15  N#Cc1ccccc1N1CC2(CCCCN2CC2CC2)CC1=O (stereo unspecified)  cytotoxicity at 70.5 h             %             7.89
16  CCC(CO)N(Cc1ccc(F)cc1)Cc1c(C)nn(C)c1Cl (stereo unspecified)  cytotoxicity at 70.5 h             %            -3.37
17  CCO[C@@H]1CCN(C(=O)c2ccnnc2)[C@@H]1Cc1cnn(C)c1  cytotoxicity at 70.5 h             %             3.33
18  COCCn1cc(-c2cc(C(=O)N3CCCC3)c3ccccn23)nc1C  cytotoxicity at 70.5 h             %           -0.704
19  CC(C)CCN1CC2(CCCN(C(=O)c3cscn3)C2)CCC1=O (stereo unspecified)  cytotoxicity at 70.5 h             %            -8.72
20  Cc1cccc(CC(=O)N2CCCC(c3n[nH]c4nccnc34)C2)c1 (stereo unspecified)  cytotoxicity at 70.5 h             %             14.6
21    CCOC(=O)c1cnn(-c2cc(Oc3ccccc3)ncn2)c1N  cytotoxicity at 70.5 h             %             3.77
22  COc1ccc(F)c(F)c1CN1CCC2(CC1)[C@H](O)C[C@@H]2OCCN  cytotoxicity at 70.5 h             %            -7.39
23  c1cnc(N2C[C@H]3CN(CC4CCOC4)C[C@H]3C2)nc1 (stereo partly specified)  cytotoxicity at 70.5 h             %            -4.56
24     CN1C[C@@H]2COC[C@]2(C(=O)NCc2cccs2)C1  cytotoxicity at 70.5 h             %             13.4
25  c1cnc(N2CCCC3(CN(CC4CCOCC4)CCO3)C2)cn1 (stereo unspecified)  cytotoxicity at 70.5 h             %            -3.73
26       O=C(c1cccn1Cc1cccs1)N1CCN(C2CC2)CC1  cytotoxicity at 70.5 h             %            -10.4
27  COc1ccc(C(=O)N2CCCC2c2noc(C(C)C)n2)nn1 (stereo unspecified)  cytotoxicity at 70.5 h             %            -4.87
28  COc1cccc(CN(C)C(=O)NCc2c(C)cc(C)[nH]c2=O)c1  cytotoxicity at 70.5 h             %            -4.51
29  CC(C)N(Cc1ccccn1)Cc1nc2c(cnn2C)c(=O)[nH]1  cytotoxicity at 70.5 h             %            -6.49
30  CCN1CCC2(CC1)CC(NC(=O)c1csnn1)c1ccccc1O2 (stereo unspecified)  cytotoxicity at 70.5 h             %            -7.53

====

Assay: Human HepG2 cell viability assay in 384 well format
Assay type: toxicity, cell-based
Parameters: dose 125 nL, time 70.5 hour; concentration not given beside the values
Conditions: HepG2 cells, read-out: Inhibition
measured.endpoint: cytotoxicity at 70.5 h (%)

>>> df
                                   compound  result_units  endpoint_result
0  CN1CCN(C(=O)N2CCC3(CCCN(C4CCOCC4)C3=O)C2)CC1 (centres undefined)             %           -0.535
1  Cc1[nH]c2ccc(CNc3cc(C(=O)NC(C)C)ccn3)cc2c1C             %            -1.62
2  CCOc1ccc(NS(=O)(=O)c2cc(C)c(C(=O)O)s2)cc1F             %            -8.14
3  c1ccc(C2CCCN2C2CSCCSC2)nc1 (centres undefined)             %            -4.87
